Source: PubChem BioAssay AID2060488

- Tested on: 966289-007-R4-J1-PDC complex spheroid viability
- procedure details: Anticancer human tumor 966289-007-R4-J1-PDC patient-derived pancreatic adenocarcinoma cell line growth inhibition [GQUAD]; active = viability on the fitted dose curve at most 10% of control; inactive = the rest
- test conditions: second compound 1 µM; first compound 0.000999 µM
Classes used: True for active, False for inactive

compound	label
CC[C@@]1(O)C(=O)OCc2c1cc1n(c2=O)Cc2cc3c(CN(C)C)c(O)ccc3nc2-1 + Cc1cnc(CNC(=O)c2c(=O)c3ccc(N4CCCN(C)CC4)nc3n3c2sc2ccccc23)cn1	True
CC[C@@]1(O)C(=O)OCc2c1cc1n(c2=O)Cc2cc3c(CN(C)C)c(O)ccc3nc2-1 + Cc1[nH]c2ccc(F)cc2c1-c1nc2c3cccnc3c3ncccc3c2[nH]1	False
Cn1ncnc1[C@H]1c2n[nH]c(=O)c3cc(F)cc(c23)N[C@@H]1c1ccc(F)cc1 + Cc1[nH]c2ccc(F)cc2c1-c1nc2c3cccnc3c3ncccc3c2[nH]1	False
Cc1[nH]c2ccccc2c1CCNCc1ccc(/C=C/C(=O)NO)cc1 + Cc1[nH]c2ccc(F)cc2c1-c1nc2c3cccnc3c3ncccc3c2[nH]1	False
CC[C@@]1(O)C(=O)OCc2c1cc1n(c2=O)Cc2cc3c(CN(C)C)c(O)ccc3nc2-1 + CN(C)c1ccc(Nc2c3ccc(NC(=O)CCN4CCCC4)cc3nc3cc(NC(=O)CCN4CCCC4)ccc23)cc1	False
Cc1[nH]c2ccccc2c1CCNCc1ccc(/C=C/C(=O)NO)cc1 + Cc1cnc(CNC(=O)c2c(=O)c3ccc(N4CCCN(C)CC4)nc3n3c2sc2ccccc23)cn1	True
CCc1c2c(nc3ccc(O)cc13)-c1cc3c(c(=O)n1C2)COC(=O)[C@]3(O)CC + CN(C)c1ccc(Nc2c3ccc(NC(=O)CCN4CCCC4)cc3nc3cc(NC(=O)CCN4CCCC4)ccc23)cc1	False
Cc1[nH]c2ccccc2c1CCNCc1ccc(/C=C/C(=O)NO)cc1 + CN(C)c1ccc(Nc2c3ccc(NC(=O)CCN4CCCC4)cc3nc3cc(NC(=O)CCN4CCCC4)ccc23)cc1	False
Cn1ncnc1[C@H]1c2n[nH]c(=O)c3cc(F)cc(c23)N[C@@H]1c1ccc(F)cc1 + CN(C)c1ccc(Nc2c3ccc(NC(=O)CCN4CCCC4)cc3nc3cc(NC(=O)CCN4CCCC4)ccc23)cc1	False

----------
- Test system: 966289-007-R4-J1-PDC complex spheroid viability
- procedure details: Anticancer human tumor 966289-007-R4-J1-PDC cell line growth inhibition [GQUAD]; active = viability on the fitted dose curve at most 10% of control; inactive = the rest;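 note: spheroids exposed to the agents for seven days before readout; percent viability relative to DMSO vehicle control wells taken as 100%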
- test conditions: second compound 0.1 µM; first compound 0.1 µM
Classes used: True (active), False (inactive)

compound	system under test	label
O=c1[nH]cc(F)c(=O)[nH]1 + Cc1[nH]c2ccc(F)cc2c1-c1nc2c3cccnc3c3ncccc3c2[nH]1	966289-007-R4-J1-PDC complex spheroid viability	False
CC1COCCN1c1cc(-c2ccnn2C)c2ccnc(-c3ccn[nH]3)c2n1 (centres undefined) + Cc1cnc(CNC(=O)c2c(=O)c3ccc(N4CCCN(C)CC4)nc3n3c2sc2ccccc23)cn1	966289-007-R4-J1-PDC complex spheroid viability	True
CC(C)n1c(=O)n(C)c2cnc3cc(F)c(-c4ccc(OCCCN5CCCCC5)nc4)cc3c21 + CN(C)c1ccc(Nc2c3ccc(NC(=O)CCN4CCCC4)cc3nc3cc(NC(=O)CCN4CCCC4)ccc23)cc1	966289-007-R4-J1-PDC complex spheroid viability	False
COc1ncnc(C2CC2)c1-c1ncc2cnn(Cc3ccc(-c4nc(C(F)(F)F)cn4C(C)C)cc3)c2n1 + CN(C)c1ccc(Nc2c3ccc(NC(=O)CCN4CCCC4)cc3nc3cc(NC(=O)CCN4CCCC4)ccc23)cc1	966289-007-R4-J1-PDC complex spheroid viability	False

----------
- System: 966289-007-R4-J1-PDC complex spheroid viability
- procedure details: Anticancer human tumor 966289-007-R4-J1-PDC cell line growth inhibition [GQUAD]; active means viability on the fitted dose curve at most 10% of control; inactive means the rest;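 note: spheroids exposed to the agents for seven days before readout; percent viability relative to DMSO vehicle control wells taken as 100%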
- test conditions: second compound 3.16 µM; first compound 0.1 µM
Classes used: 1 (active), -1 (inactive)

compound	label
CC(C)n1c(=O)n(C)c2cnc3cc(F)c(-c4ccc(OCCCN5CCCCC5)nc4)cc3c21 + Cc1cnc(CNC(=O)c2c(=O)c3ccc(N4CCCN(C)CC4)nc3n3c2sc2ccccc23)cn1	1
CC1COCCN1c1cc(C2(O)CC3CCC(C2)O3)c2cnn(-c3ccn[nH]3)c2n1 (configuration not stated) + CN(C)c1ccc(Nc2c3ccc(NC(=O)CCN4CCCC4)cc3nc3cc(NC(=O)CCN4CCCC4)ccc23)cc1	-1
Cc1cccc(N(C)C(=O)C2C(O)CCN2c2nc(C)cc(C(F)(F)F)c2C#N)c1 (configuration not stated) + Cc1[nH]c2ccc(F)cc2c1-c1nc2c3cccnc3c3ncccc3c2[nH]1	-1
C#Cc1c(F)ccc2cc(O)cc(-c3ncc4c(N5CC6CCC(C5)N6)nc(OCC56CCCN5CC(F)C6)nc4c3F)c12 (configuration not stated) + CN(C)c1ccc(Nc2c3ccc(NC(=O)CCN4CCCC4)cc3nc3cc(NC(=O)CCN4CCCC4)ccc23)cc1	-1
CCCS(=O)(=O)Nc1ccc(F)c(C(=O)c2c[nH]c3ncc(-c4ccc(Cl)cc4)cc23)c1F + CN(C)c1ccc(Nc2c3ccc(NC(=O)CCN4CCCC4)cc3nc3cc(NC(=O)CCN4CCCC4)ccc23)cc1	-1
COc1ccc([C@@H](O)c2cc(-c3ncnc4cc(N5CCOCC5)ccc34)c(F)cc2Cl)nn1 + Cc1cnc(CNC(=O)c2c(=O)c3ccc(N4CCCN(C)CC4)nc3n3c2sc2ccccc23)cn1	1
CCCS(=O)(=O)Nc1ccc(F)c(C(=O)c2c[nH]c3ncc(-c4ccc(Cl)cc4)cc23)c1F + Cc1cnc(CNC(=O)c2c(=O)c3ccc(N4CCCN(C)CC4)nc3n3c2sc2ccccc23)cn1	1

----------
Catalogue of viability, T/C readings, one per entry.
- Tested on: 966289-007-R4-J1-PDC complex spheroid viability
- procedure details: Anticancer human tumor 966289-007-R4-J1-PDC cell line growth inhibition [GQUAD];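 note: spheroids exposed to the agents for seven days before readout; percent viability relative to DMSO vehicle control wells taken as 100%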
- test conditions: second compound 0.1 µM; first compound 10 µM; hits give low values
readout name: viability, T/C (%)

molecule	measured number
COc1cccc2c1C(=O)c1c(O)c3c(c(O)c1C2=O)CC(O)(C(=O)CO)CC3OC1CC(N)C(O)C(C)O1 (stereo not drawn) + CN(C)c1ccc(Nc2c3ccc(NC(=O)CCN4CCCC4)cc3nc3cc(NC(=O)CCN4CCCC4)ccc23)cc1	0.53
CC(C)(O)C1CCC(Nc2ccc3ncc(-c4cccc(C(F)(F)F)c4)n3n2)CC1 (stereo not drawn) + CN(C)c1ccc(Nc2c3ccc(NC(=O)CCN4CCCC4)cc3nc3cc(NC(=O)CCN4CCCC4)ccc23)cc1	53.4
COc1cc(C2c3cc4c(cc3C(OC3OC5COC(C)OC5C(O)C3O)C3COC(=O)C23)OCO4)cc(OC)c1O (stereo not drawn) + Cc1cnc(CNC(=O)c2c(=O)c3ccc(N4CCCN(C)CC4)nc3n3c2sc2ccccc23)cn1	0.71

----------
- Tested on: 966289-007-R4-J1-PDC complex spheroid viability
- procedure details: Anticancer human tumor 966289-007-R4-J1-PDC cell line growth inhibition [GQUAD];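 note: spheroids exposed to the agents for seven days before readout; percent viability relative to DMSO vehicle control wells taken as 100%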
- test conditions: second compound 0.1 µM; first compound 1 µM; hits give low values

compound	viability, T/C [%]
CCCS(=O)(=O)Nc1ccc(F)c(C(=O)c2c[nH]c3ncc(-c4ccc(Cl)cc4)cc23)c1F + Cc1[nH]c2ccc(F)cc2c1-c1nc2c3cccnc3c3ncccc3c2[nH]1	112
C=CCn1c(=O)c2cnc(Nc3ccc(N4CCN(C)CC4)cc3)nc2n1-c1cccc(C(C)(C)O)n1 + CN(C)c1ccc(Nc2c3ccc(NC(=O)CCN4CCCC4)cc3nc3cc(NC(=O)CCN4CCCC4)ccc23)cc1	101
CC1COCCN1c1cc(C2(O)CC3CCC(C2)O3)c2cnn(-c3ccn[nH]3)c2n1 (stereo not drawn) + Cc1[nH]c2ccc(F)cc2c1-c1nc2c3cccnc3c3ncccc3c2[nH]1	5.55
C=CCn1c(=O)c2cnc(Nc3ccc(N4CCN(C)CC4)cc3)nc2n1-c1cccc(C(C)(C)O)n1 + Cc1cnc(CNC(=O)c2c(=O)c3ccc(N4CCCN(C)CC4)nc3n3c2sc2ccccc23)cn1	3.91
CC(C)n1c(=O)n(C)c2cnc3cc(F)c(-c4ccc(OCCCN5CCCCC5)nc4)cc3c21 + Cc1cnc(CNC(=O)c2c(=O)c3ccc(N4CCCN(C)CC4)nc3n3c2sc2ccccc23)cn1	9.72
O=C(c1cc(Cc2n[nH]c(=O)c3ccccc23)ccc1F)N1CCN(C(=O)C2CC2)CC1 + Cc1cnc(CNC(=O)c2c(=O)c3ccc(N4CCCN(C)CC4)nc3n3c2sc2ccccc23)cn1	17.1
COc1cccc2c1C(=O)c1c(O)c3c(c(O)c1C2=O)CC(O)(C(=O)CO)CC3OC1CC(N)C(O)C(C)O1 (stereo not drawn) + Cc1cnc(CNC(=O)c2c(=O)c3ccc(N4CCCN(C)CC4)nc3n3c2sc2ccccc23)cn1	0.41
COc1cccc2c1C(=O)c1c(O)c3c(c(O)c1C2=O)CC(O)(C(=O)CO)CC3OC1CC(N)C(O)C(C)O1 (stereo not drawn) + CN(C)c1ccc(Nc2c3ccc(NC(=O)CCN4CCCC4)cc3nc3cc(NC(=O)CCN4CCCC4)ccc23)cc1	0.83
